Data provenance: PubChem BioAssay AID686978

# method summary: qHTS for Inhibitors of human tyrosyl-DNA phosphodiesterase 1 (TDP1): qHTS in cells in absence of CPT; further: nearly all actives have a fitted effect of over 55% in size; further: potency means the concentration at half of the fitted maximal effect
# reported conditions: DT40 Tdp1-/- hTDP1 cells, no CPT, ATP luminescence, 48 h
Out of some 420,000 compounds screened, about 64,000 (15%) were called active. Not shown: some 27% with an inconclusive outcome. These entries were drawn from the full list.
metric: Potency

Some compounds with known Potency results, for comparison:
smiles: O=C(c1cccs1)N1CCN(C(=O)N2CCOCC2)CC1
Potency: inactive
--
smiles: Cc1ccc(OCC(=O)Nc2ccc(Cl)c(-c3nc4ccccc4[nH]3)c2)cc1C
Potency: inactive
--
smiles: COc1ccc(Br)cc1C(=O)NC(=S)Nc1cc(-c2nc3ccccc3[nH]2)ccc1C
Potency: 14.6 µM (active)
--
smiles: COc1ccc(Br)cc1C(=O)Nc1cccc(C)c1C
Potency: inactive
--
smiles: C/C(=N\Nc1nc(Nc2ccccc2)nc(N2CCOCC2)n1)c1cccs1
Potency: 20.6 µM (active)
--
smiles: C/C=N/NC(=O)CCCC(=O)N/N=C/C
Potency: inactive
--
smiles: COCCNC(=O)c1cc2c(Br)ccc(Br)c2nc1N
Potency: inactive
--
smiles: Cc1ccc(OCC(=O)NCCCNC(=O)c2ccco2)cc1C
Potency: inactive
--
smiles: O=C(Nc1ccc2ccccc2c1)/C(=C\c1ccc2c(c1)OCO2)NC(=O)c1ccco1
Potency: inactive
--
smiles: CO/N=C(\C(=O)N[C@@H]1C(=O)N2C(C(=O)O)=C(C[N+]3(C)CCCC3)CS[C@H]12)c1csc(N)n1
Potency: inactive

Would you kindly look at the next entry?
The compound listed as `C/C(=N\Nc1ccccc1)c1cccs1` has a reported Potency of inactive
